Kindly supply the reported logP values for the records listed here.
One number for each entry.

Prompt line: If you can, please state the reported logP value of CCCOCC(C)OCC(C)O (centres undefined) .
Response line: 0.99

Prompt line: Dear colleague, I am looking for the recorded logP of the following compound: COCCCO
Response line: -0.44

Prompt line: Consider the compound shown here: COC(C)COC(C)COC(C)=O (centres undefined) What is its recorded logP?
Response line: 0.8

Prompt line: Find the recorded logP belonging to CCCCOCC(C)OCC(C)O (centres undefined) and report it.
Response line: 1.52

Prompt line: Please look up its logP: CCCCOCC(C)O (centres undefined)
Response line: 1.15

I would be grateful if you could provide logP for each of the following entries.
1. COCC(C)OCC(C)OCC(C)O (centres undefined)
2. CC(CO)Oc1ccccc1 (centres undefined)
3. COCC(C)OCC(C)OC(C)=O (centres undefined)

Response line:
1: 0.31; 2: 1.5; 3: 0.8

Prompt line: Item CCCCOCC(C)OCC(C)OCC(C)O (centres undefined) has what recorded logP?
Response line: 1.9

* * *

Category scheme (logP): zone 1: < 0.4; zone 2: ≥ 0.4 and < 1; zone 3: ≥ 1

# count of solved cases: 5
Prompt line: Which logP band matches COC(C)COC(C)COC(C)CO (stereo not given) ?
Response line: zone 1

Prompt line: The entry to classify is CCCCOC(C)CO (stereo not given) ; which class holds it?
Response line: zone 3

Prompt line: Given CC(O)COc1ccccc1 (stereo not given) , name the class its logP places it in.
Response line: zone 3

Prompt line: Which bin should I file COCC(C)O (stereo not given) under?
Response line: zone 1

Prompt line: Which logP band matches COC(C)COC(C)CO (stereo not given) ?
Response line: zone 1

---
Prompt line: Class? Entry: CCCOCC(C)O (stereo not given)
Response line: zone 2

Prompt line: Would you mind sorting CCCCOC(C)COC(C)COC(C)CO (stereo not given) into the appropriate category?
Response line: zone 3

Prompt line: Assign a bin to CCCOC(C)CO (stereo not given)
Response line: zone 2

Prompt line: Category of COC(C)COC(C)=O (stereo not given) , please.
Response line: zone 2
